- Assay remarks: Selectivity index, ratio of IC50 for CHOK1 cells to MIC for Mycobacterium tuberculosis H37Rv
- Format: toxicity
- Test parameters: hamster, read-out: Selectivity Index
Classification field: True = selectivity ratio at or over 10; False = selectivity ratio under 10.

Here's what some known entries look like.
Cc1ccc(N(C(=O)c2sc(C)nc2C)C(C(=O)NC2CCCCC2)c2ccccc2)cc1 (configuration not stated)
True
Cc1ccc(N(C(=O)c2c(C)noc2C)C(C(=O)NC2CCCCC2)c2ccncc2)cc1 (configuration not stated)
True
Cc1ccc(N(C(=O)c2sc(C)nc2C)C(C(=O)NC2CCCCC2)c2ccncc2)cc1 (configuration not stated)
True
Cc1cc(C)c(N(C(=O)c2sc(C)nc2C)C(C(=O)NC2CCCCC2)c2ccccc2)c(C)c1 (configuration not stated)
False
Cc1nc(C)c(C(=O)N(c2cccc(C)c2C)C(C(=O)NC2CCCCC2)c2cccnc2)s1 (configuration not stated)
True
Cc1cccc(N(C(=O)c2ccncc2)C(C(=O)NC2CCCCC2)c2cccnc2)c1C (configuration not stated)
True
Cc1ccc(N(C(=O)c2c(C)noc2C)C(C(=O)NC2CCCCC2)c2cccnc2)cc1 (configuration not stated)
True
Cc1cccc(N(C(=O)C2CCCCN2)C(C(=O)NC2CCCCC2)c2ccccc2)c1C (configuration not stated)
False
Cc1ccc(N(C(=O)c2ccc[nH]2)C(C(=O)NC2CCCCC2)c2ccccc2)c(C)c1 (configuration not stated)
True
Cc1ccc(N(C(=O)c2sc(C)nc2C)C(C(=O)NC2CCCCC2)c2cccc(C(F)(F)F)c2)cc1 (configuration not stated)
False

I'd appreciate it if you could say whether Cc1nc(C)c(C(=O)N(c2cccc(C)c2C)C(C(=O)NC2CCCCC2)c2ccccc2)s1 (configuration not stated) has selectivity ratio at least equal to 10.
False

I'd appreciate it if you could say whether Cc1nc(C)c(C(=O)N(c2cccc(C)c2C)C(C(=O)NC2CCCCC2)c2ccc(Cl)cc2)s1 (configuration not stated) has selectivity ratio at least equal to 10.
False

I'd appreciate it if you could say whether Cc1cccc(N(C(=O)c2c(C)noc2C)C(C(=O)NC2CCCCC2)c2ccccc2)c1C (configuration not stated) has selectivity ratio at least equal to 10.
True

I'd appreciate it if you could say whether Cc1ccc(N(C(=O)c2sc(C)nc2C)C(C(=O)NC2CCCCC2)c2ccc[nH]2)cc1 (configuration not stated) has selectivity ratio at least equal to 10.
False

I'd appreciate it if you could say whether Cc1cccc(N(C(=O)c2ccc[nH]2)C(C(=O)NC2CCCCC2)c2ccncc2)c1C (configuration not stated) has selectivity ratio at least equal to 10.
True

I'd appreciate it if you could say whether Cc1cccc(N(C(=O)c2ccc[nH]2)C(C(=O)NC2CCCCC2)c2ccccc2)c1C (configuration not stated) has selectivity ratio at least equal to 10.
True

I'd appreciate it if you could say whether Cc1cccc(N(C(=O)c2ccc[nH]2)C(C(=O)NC2CCCCC2)c2cccnc2)c1C (configuration not stated) has selectivity ratio at least equal to 10.
True

---

Measured pIC50 by item
- System: HeLa
- Assay remarks: Cytotoxicity against human HeLa cells after 24 hrs by MTT assay
- Format: functional, cell-based
Remember the convention: pIC50 equals -log10 of concentration in molar.

Look over these answered cases.
Cc1ccc(N(C(=O)c2sc(C)nc2C)C(C(=O)NC2CCCCC2)c2cccc(C(F)(F)F)c2)cc1 (centres undefined)
4.78
Cc1ccc(N(C(=O)c2c(C)noc2C)C(C(=O)NC2CCCCC2)c2cccnc2)cc1 (centres undefined)
4.74
COc1cccc2c1C(=O)c1c(O)c3c(c(O)c1C2=O)C[C@@](O)(C(=O)CO)C[C@@H]3O[C@H]1C[C@H](N)[C@H](O)[C@H](C)O1
6.10

Then there is this compound:
Indicate the recorded pIC50 value for this compound: Cc1ccc(N(C(=O)c2sc(C)nc2C)C(C(=O)NC2CCCCC2)c2ccccc2)cc1 (centres undefined)
4.97

Data origin, for the record: ChEMBL document CHEMBL4422644
